meta.source: patent US20250170090A1

System: HUVEC cells
Experiment: CCK-8 cell viability: alleviation of proliferative toxicity of anti-tumor agents on HUVEC cells (Tables 7-1, 7-2)
Format: cell-based
Settings: Selumetinib (5 μM), NO-NSAID 1 μM
Method: The cultured HUVEC cells were digested the suspended, counted, and seed into a 96-well plate with 5,000-10,000 cells per well. […] After culturing for 24-48 hours, the Cell Counting Kit-8 (CCK-8) detection kit (C0037, Shanghai Beyotime Biotechnology Co., Ltd., Beyotime Biotechnology) was used to determine the cell viability. […] The results were statistically analyzed and plotted using GraphPad Prism 6.0 software and t test.
// NB: equality with 30% counts as Criterion not met; only NO-NSAID response rate % (average) strictly below is Criterion met

For orientation, consider the following solved cases.
>  <molecule>
CC(C)Cc1ccc(C(C)C(=O)OCO/N=[N+](\[O-])N(C)C)cc1 (centres unmarked)

>  <target-system>
HUVEC cells

>  <assigned-category>
Criterion not met

$$$$
>  <molecule>
COc1ccc2cc(C(C)C(=O)OCCCCO[N+](=O)[O-])ccc2c1 (centres unmarked)

>  <target-system>
HUVEC cells

>  <assigned-category>
Criterion not met

$$$$
>  <molecule>
CC(=O)Oc1ccccc1C(=O)Oc1cccc(CO[N+](=O)[O-])c1

>  <target-system>
HUVEC cells

>  <assigned-category>
Criterion not met

$$$$
>  <molecule>
CC(=O)Oc1ccccc1C(=O)OCOC(=O)CCCCCO[N+](=O)[O-]

>  <target-system>
HUVEC cells

>  <assigned-category>
Criterion not met

$$$$

Field: below-cutoff. Rule: recorded NO-NSAID response rate % (average) strictly less than 30%. Subject: CC(C(=O)OCCCO[N+](=O)[O-])c1ccc(-c2ccccc2)c(F)c1 (centres unmarked) Criterion met

---

tested on: HUVEC cells; experiment: CCK-8 cell viability: alleviation of proliferative toxicity of anti-tumor agents on HUVEC cells (Tables 7-1, 7-2); type: cell-based; details: Sunitinib (5 μM), NO-NSAID 500 μM
Please enter label 1 where NO-NSAID response rate % (average) is greater than or equal to 7%, and label 0 where it is lower.

>  <compound>
CC(C(=O)OCCCO[N+](=O)[O-])c1ccc(-c2ccccc2)c(F)c1 (centres unmarked)

>  <assigned-category>
label 1

$$$$
>  <compound>
COc1ccc2cc(C(C)C(=O)OCCCCO[N+](=O)[O-])ccc2c1 (centres unmarked)

>  <assigned-category>
label 1

$$$$
>  <compound>
CC(C)Cc1ccc(C(C)C(=O)OCO/N=[N+](\[O-])N(C)C)cc1 (centres unmarked)

>  <assigned-category>
label 1

$$$$

Next:
Determine whether this compound has NO-NSAID response rate % (average) no lower than 7%: `CC(=O)Oc1ccccc1C(=O)Oc1cccc(CO[N+](=O)[O-])c1` label 0

---

test system: gastric epithelial cells (GES-1); experiment: CCK-8 cell viability: alleviation of proliferative toxicity of anti-tumor agents on GES-1 (Table 8-3); format: cell-based, human; details: Everolimus (5 μM), NO-NSAID 100 μM
Kindly supply the reported Response rate % (average) values for the records listed here.
Quote the value and follow it with the unit of measurement.

Example molecules with recorded Response rate % (average):
>  <molecule>
CC(=O)Oc1ccccc1C(=O)OCOC(=O)CCCCCO[N+](=O)[O-]

>  <Response rate % (average)>
19%

$$$$
>  <molecule>
CC(C)Cc1ccc(C(C)C(=O)OCO/N=[N+](\[O-])N(C)C)cc1 (centres unmarked)

>  <Response rate % (average)>
23%

$$$$
>  <molecule>
CC(=O)Oc1ccccc1C(=O)Oc1cccc(CO[N+](=O)[O-])c1

>  <Response rate % (average)>
31%

$$$$
>  <molecule>
CC(C(=O)OCCCO[N+](=O)[O-])c1ccc(-c2ccccc2)c(F)c1 (centres unmarked)

>  <Response rate % (average)>
24%

$$$$

Now consider a different molecule.
Using known records, supply Response rate % (average) for COc1ccc2cc(C(C)C(=O)OCCCCO[N+](=O)[O-])ccc2c1 (centres unmarked) 33%
